A collection of compounds and their measured IC50
Test system: HT-29 (colon carcinoma)
Experiment: MTS cell viability assay, HT-29
Format: cell-based
Details: Homo sapiens, 72 h

Compound	IC50
CC(C)[C@@H]1CC[C@]2(C(=O)O)CC[C@]3(C)[C@H](CC[C@@H]4[C@@]5(C)CCC(=O)C(C)(C)[C@@H]5CC[C@]43C)[C@@H]12 [Compound 87]	35 µg/mL
CC(C)[C@@H]1CC[C@]2(C(=O)O)CC[C@]3(C)[C@H](CC[C@@H]4[C@@]5(C)CC[C@H](N)C(C)(C)[C@@H]5CC[C@]43C)[C@@H]12 [Compound 86]	5 µg/mL
C=C(C)[C@@H]1CC[C@]2(COC(=O)COCC)CC[C@]3(C)[C@H](CC[C@@H]4[C@@]5(C)C=C(C#N)C(=O)C(C)(C)[C@@H]5CC[C@]43C)[C@@H]12 [Compound 40]	10 µg/mL
C=C(C)[C@@H]1CC[C@]2(COC(=O)CBr)CC[C@]3(C)[C@H](CC[C@@H]4[C@@]5(C)CC[C@H](O)C(C)(C)[C@@H]5CC[C@]43C)[C@@H]12 [Compound 13]	10 µg/mL
C=C(C)[C@@H]1CC[C@]2(COC(=O)CBr)CC[C@]3(C)[C@H](CC[C@@H]4[C@@]5(C)CCC(=O)C(C)(C)[C@@H]5CC[C@]43C)[C@@H]12 [Compound 18]	36 µg/mL
C=C(C)[C@@H]1CC[C@]2(COC(=O)CBr)CC[C@]3(C)[C@H](CC[C@@H]4[C@@]5(C)C=C(C#N)C(=O)C(C)(C)[C@@H]5CC[C@]43C)[C@@H]12 [Compound 39]	6 µg/mL
CC(C)[C@@H]1CC[C@]2(CO)CC[C@]3(C)[C@H](CC[C@@H]4[C@@]5(C)Cc6cnoc6C(C)(C)[C@@H]5CC[C@]43C)[C@@H]12 [Compound 49]	50 to 75 µg/mL
C=C(C)[C@@H]1CC[C@]2(CO)CC[C@]3(C)[C@H](CC[C@@H]4[C@@]5(C)C=C(C#N)C(=O)C(C)(C)[C@@H]5CC[C@]43C)[C@@H]12 [Compound 38]	8 µg/mL
CC(C)[C@@H]1CC[C@]2(CO)CC[C@]3(C)[C@H](CC[C@@H]4[C@@]5(C)C=C(C#N)C(=O)C(C)(C)[C@@H]5CC[C@]43C)[C@@H]12 [Compound 55]	7 µg/mL
C=C(C)[C@@H]1CC[C@]2(C(=O)O)CC[C@]3(C)[C@H](CC[C@@H]4[C@@]5(C)CC[C@H](O)C(C)(C)[C@@H]5CC[C@]43C)[C@@H]12 [Compound 1, reference compound]	37 µg/mL

The measured values listed here are drawn from patent US20070232577A1.
